- Test system: ATP;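 also: ATP exposure 15 min at 22 °C before imaging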
- method.notes: switch fluorescence ratio, 500 uM ATP over buffer (Cy3 cluster intensity, sum of 5 cycles each) (fold (ratio)); higher = stronger signal-on switching upon ATP binding; sequences stand for … in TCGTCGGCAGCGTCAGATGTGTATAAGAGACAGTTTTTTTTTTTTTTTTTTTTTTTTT…TC
- setup.conditions: aptamer strand: ATP DNA aptamer (quencher-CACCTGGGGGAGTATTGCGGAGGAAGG + anchor), 100 nM annealed; ATP concentration: 500 uM
Below, each entry is listed alongside its reported switch fluorescence ratio.
Answer field: number only, no words.

Reference set (3 entries):
GGGTTTAGAT; 0.985
ATCTTTCGCG; 1.02
GGGGATGCGG; 1.02

Reported switch fluorescence ratio for "ATTTGACTCT" was 0.986

Reported switch fluorescence ratio for "TATTGAGCGT" was 1

Reported switch fluorescence ratio for "CATGTGGGGT" was 0.992

Reported switch fluorescence ratio for "TTTTGTTGTC" was 0.984

Reported switch fluorescence ratio for "TAAAATGGAC" was 1.03

* * *

- System: ATP;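 also: ATP exposure 15 min at 22 °C before imaging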
- method.notes: switch fluorescence ratio, 500 uM ATP over buffer (Cy3 cluster intensity, sum of 5 cycles each) (fold (ratio)); higher = stronger signal-on switching upon ATP binding; sequences stand for … in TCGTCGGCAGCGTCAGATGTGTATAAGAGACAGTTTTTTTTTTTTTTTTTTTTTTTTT…TC
- setup.conditions: aptamer strand: ATP DNA aptamer (quencher-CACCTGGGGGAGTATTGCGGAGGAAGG + anchor), 100 nM annealed; ATP concentration: 500 uM
Below, each entry is listed alongside its reported switch fluorescence ratio.

Reference set (6 entries):
TTGGAGAGTG; 0.963
GTAGGTATGG; 0.969
GAAGCATAAT; 1.27
CAGTCTTCTT; 1.02
AGAGGTGTGC; 1.05
ATTTGGAGG; 0.986

For the sequence "AACCCAACGA" , the measured switch fluorescence ratio on ATP was 1.27

For the sequence "TATCACGGCG" , the measured switch fluorescence ratio on ATP was 0.998

* * *

- System: ATP;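 also: ATP exposure 15 min at 22 °C before imaging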
- method.notes: switch fluorescence ratio, 500 uM ATP over buffer (Cy3 cluster intensity, sum of 5 cycles each) (fold (ratio)); higher = stronger signal-on switching upon ATP binding; sequences stand for … in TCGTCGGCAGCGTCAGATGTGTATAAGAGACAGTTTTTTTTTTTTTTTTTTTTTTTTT…TC
- setup.conditions: aptamer strand: ATP DNA aptamer (quencher-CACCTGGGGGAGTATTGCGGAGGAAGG + anchor), 100 nM annealed; ATP concentration: 500 uM
readout.type: switch fluorescence ratio
Answer field: number only, no words.

Reference set (2 entries):
AGGGGGGCTG; 0.975
TGAAGATTTT; 0.97

For the sequence "TTGTCGTGTG" , the measured switch fluorescence ratio on ATP was 1

For the sequence "GTGGTGCGGA" , the measured switch fluorescence ratio on ATP was 0.943

For the sequence "GCTTAAAGAC" , the measured switch fluorescence ratio on ATP was 1.1

For the sequence "GAAGCTTGGG" , the measured switch fluorescence ratio on ATP was 1.04

For the sequence "CGTCTGGGCG" , the measured switch fluorescence ratio on ATP was 0.957

For the sequence "AAGTGATGCT" , the measured switch fluorescence ratio on ATP was 1.03

* * *

Below, each entry is listed alongside its reported switch fluorescence ratio.
- Test system: ATP;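 also: ATP exposure 15 min at 22 °C before imaging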
- method.notes: switch fluorescence ratio, 500 uM ATP over buffer (Cy3 cluster intensity, sum of 5 cycles each) (fold (ratio)); higher = stronger signal-on switching upon ATP binding; sequences stand for … in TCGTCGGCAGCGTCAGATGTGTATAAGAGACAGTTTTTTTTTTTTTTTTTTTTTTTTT…TC
- setup.conditions: aptamer strand: ATP DNA aptamer (quencher-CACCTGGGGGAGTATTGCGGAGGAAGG + anchor), 100 nM annealed; ATP concentration: 500 uM
Answer field: number only, no words.

ACGGGGTAAT; 1.22
TATATTTTTC; 1.15

Reported switch fluorescence ratio for "AGACGAGGCT" was 1.01

Reported switch fluorescence ratio for "AATGAAAATC" was 1.08

Reported switch fluorescence ratio for "CCTGGAAAGT" was 0.985

Reported switch fluorescence ratio for "CCTACTTCCA" was 1.1

Reported switch fluorescence ratio for "GCGGAGAGAG" was 0.998

Reported switch fluorescence ratio for "GGACTCAGGG" was 1.03

Reported switch fluorescence ratio for "TGGAAAGTTT" was 1

Reported switch fluorescence ratio for "TACGAGCCAC" was 1.31

Reported switch fluorescence ratio for "AAGGGGGGGA" was 1.01

Reported switch fluorescence ratio for "TGAAATTAGT" was 1.01

Reported switch fluorescence ratio for "CATTTCAGTG" was 0.988

Reported switch fluorescence ratio for "TTTTTTTCAG" was 1.01

Reported switch fluorescence ratio for "ATGTACGAGA" was 1.06

Reported switch fluorescence ratio for "CATGGGAGAC" was 0.986

* * *

- Tested on: ATP;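 also: ATP exposure 15 min at 22 °C before imaging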
- method.notes: switch fluorescence ratio, 500 uM ATP over buffer (Cy3 cluster intensity, sum of 5 cycles each) (fold (ratio)); higher = stronger signal-on switching upon ATP binding; sequences stand for … in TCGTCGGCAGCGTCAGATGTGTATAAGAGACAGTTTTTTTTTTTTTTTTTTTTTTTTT…TC
- setup.conditions: aptamer strand: ATP DNA aptamer (quencher-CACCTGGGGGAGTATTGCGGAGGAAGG + anchor), 100 nM annealed; ATP concentration: 500 uM
Below, each entry is listed alongside its reported switch fluorescence ratio.
Answer field: number only, no words.

Reference set (3 entries):
ATATGGGGGG; 0.998
GCATTCGGAT; 1.01
AAATAATTGC; 1.01

Reported switch fluorescence ratio for "ATGGAATGCG" was 1.03

Reported switch fluorescence ratio for "GAAAGGATTA" was 0.995

Reported switch fluorescence ratio for "TTTTGACCGT" was 0.973

Reported switch fluorescence ratio for "GGCGTTTTAG" was 0.998

Reported switch fluorescence ratio for "TGGGGGATG" was 0.971

Reported switch fluorescence ratio for "TTCTAGGTAG" was 0.991

* * *

- Test system: ATP;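 also: ATP exposure 15 min at 22 °C before imaging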
- method.notes: switch fluorescence ratio, 500 uM ATP over buffer (Cy3 cluster intensity, sum of 5 cycles each) (fold (ratio)); higher = stronger signal-on switching upon ATP binding; sequences stand for … in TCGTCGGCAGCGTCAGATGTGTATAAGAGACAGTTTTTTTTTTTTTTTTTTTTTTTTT…TC
- setup.conditions: aptamer strand: ATP DNA aptamer (quencher-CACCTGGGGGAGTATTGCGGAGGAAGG + anchor), 100 nM annealed; ATP concentration: 500 uM
readout.type: switch fluorescence ratio
Answer field: number only, no words.

AAGTGGAGGG; 0.985
ATAAGAGTCT; 1.03
TTTATTTGTA; 0.99
AAGTTGTGA; 0.973
AATCAATTAC; 1.12

Reported switch fluorescence ratio for "AAATTCATGT" was 0.996

Reported switch fluorescence ratio for "CGGTTAGGAA" was 1.01

Reported switch fluorescence ratio for "CTGATGAGTT" was 0.982

Reported switch fluorescence ratio for "GAGGAAAAGT" was 0.997

Reported switch fluorescence ratio for "AAGTGGTTA" was 0.981

Reported switch fluorescence ratio for "TTTTTAGGCG" was 0.978

* * *

Below, each entry is listed alongside its reported switch fluorescence ratio.
- Test system: ATP;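 also: ATP exposure 15 min at 22 °C before imaging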
- method.notes: switch fluorescence ratio, 500 uM ATP over buffer (Cy3 cluster intensity, sum of 5 cycles each) (fold (ratio)); higher = stronger signal-on switching upon ATP binding; sequences stand for … in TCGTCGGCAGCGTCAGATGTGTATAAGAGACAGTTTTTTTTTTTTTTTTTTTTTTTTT…TC
- setup.conditions: aptamer strand: ATP DNA aptamer (quencher-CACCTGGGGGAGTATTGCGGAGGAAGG + anchor), 100 nM annealed; ATP concentration: 500 uM
Answer field: number only, no words.

GCGGGGTAGG; 1.01

For the sequence "TGGGTTACTA" , the measured switch fluorescence ratio on ATP was 1

For the sequence "CGTGATGATT" , the measured switch fluorescence ratio on ATP was 0.981

For the sequence "GCGTTGATGA" , the measured switch fluorescence ratio on ATP was 1.01

For the sequence "TGGTGGTTCG" , the measured switch fluorescence ratio on ATP was 0.975

For the sequence "TTATTGGGTG" , the measured switch fluorescence ratio on ATP was 1.04

For the sequence "GGATATATGG" , the measured switch fluorescence ratio on ATP was 1

For the sequence "CGTCATGCTC" , the measured switch fluorescence ratio on ATP was 1.19

For the sequence "GAGGAGCTGG" , the measured switch fluorescence ratio on ATP was 0.986

For the sequence "ATGCATTAAT" , the measured switch fluorescence ratio on ATP was 0.997

For the sequence "TTAGGTCATG" , the measured switch fluorescence ratio on ATP was 0.988

For the sequence "TTAAATTTCG" , the measured switch fluorescence ratio on ATP was 1

For the sequence "TTTAGCATAA" , the measured switch fluorescence ratio on ATP was 1.23

For the sequence "TCGTTTATAT" , the measured switch fluorescence ratio on ATP was 1.01
